Test system: A549 NSCLC
Test: NCI tumour cell line growth inhibition, 48 h
Reported property: TGI (nM)

| Compound | Reported property | Relation qualifier | Measured number |
| --- | --- | --- | --- |
| C=CCNc1ccc(C)cc1 | TGI | > | 100000 |
| C=C1C(=O)O[C@H]2[C@H]1CC/C(COC(=O)/C=C\C(=O)NCc1ccc(Cn3c(=O)sn(-c4ccc(C#N)cc4)c3=O)cc1)=C\CC[C@@]1(C)O[C@@H]21 | TGI | = | 2420 |
| CC[C@@H]1/C=C/C=C/C[C@H](C)[C@@H](O)[C@](C)(O)C(=O)[C@H](C)[C@@H](O)[C@H](C)C(=O)[C@H](C)[C@@H](O)[C@H](C)/C=C/C(=O)O[C@H]2[C@@H](C)[C@@H](CC1)O[C@]1(O[C@H](CC(C)O)[C@H](C)CC1=O)[C@@H]2C (some centres undefined) | TGI | > | 16200 |
| NCCCCn1c2c(c3ccccc3c1=O)C(=O)c1ccccc1-2 | TGI | = | 361 |

###

System: UO-31 renal
Test: NCI tumour cell line growth inhibition, 48 h
Where a SMILES comes first, the peptide text is derived from it. Bridges are numbered along the chain shown (N, C = ends). [ ]: non-standard residue; d: D form. The star is where a group is joined. Cbz = O=C(OCc1ccccc1)*; Aib = CC(C)(N)C(=O)O; OBn = c1ccc(CO*)cc1; βAla = NCCC(=O)O
Reported property: TGI

| Compound | Result |
| --- | --- |
| O=c1[nH]nc(-c2cccc(Br)c2)[nH]1 | > 100 µM |
| Oc1cc(O)c2c(c1)O[C@H](c1cc(O)c(O)c(O)c1)[C@H](O)C2 | 39.4 µM |
| Nc1ccc(C(=O)Nn2c(-c3ccccc3)nc3ccccc3c2=O)cc1 | > 100 µM |
| COC(=O)C1(c2ccc(N(C)C)cc2OC)CCCN(C(=O)Oc2ccccc2[N+](=O)[O-])CCc2c1[nH]c1ccccc21 (centres undefined) | > 100 µM |
| COC12C=CC(CC1)C(C)(C)C2=O (centres undefined) | > 100 µM |
| CC1(C)NC(=O)C(NC(=O)C(CC(=O)OCc2ccccc2)NC(=O)OCc2ccccc2)CCCCNC(=O)CCNC1=O (centres undefined) (Cbz-D(OBn)K[Aib][βAla]; lactam 2-C; configuration not given here) | > 100 µM |
| CSc1nc(NC2OC(COC(C)=O)C(OC(C)=O)C(OC(C)=O)C2OC(C)=O)c2c(OC(C)=O)c(C)c(=O)oc2n1 (centres undefined) | > 100 µM |
| NCCCCn1c2c(c3ccccc3c1=O)C(=O)c1ccccc1-2 | 1.45 µM |
| Cc1cc(C2CCCCC2)n(O)c(=O)c1 | > 100 µM |
| CCCNC(=S)N/N=C(\C)c1ccccn1 | > 82.8 µM |
| CC(=O)c1cccc2c1CC1(C2)Cc2ccc3c(c2C1=O)CCC3 (centres undefined) | > 100 µM |
| COC(=O)c1ccc2c(c1)CC1(C2)Cc2cc3c(cc2C1=O)CCC3 (centres undefined) | > 100 µM |
| CCOC(=O)NC(=O)c1cn(CCCOC(=O)NCCCCCCNC(=O)OCCCn2c(=O)c(C(=O)NC(=O)OCC)cn(C)c2=O)c(=O)n(C)c1=O | > 100 µM |
| NC(N)=N/N=C/c1c(Cl)nc2sccn12 | > 100 µM |
| COc1ccc(C2CC(=O)c3c(OC)cc(OC)cc3O2)cc1 (centres undefined) | > 100 µM |
| CCOC(=O)C(Cl)(NC(=O)c1ccc(F)cc1)C(F)(F)F (centres undefined) | > 100 µM |
| CNC(=O)N1CCN(C(=O)NC)CCN(C(=O)NC)CC1 | > 100 µM |
| CC(=O)[C@]1(O)Cc2c(O)c3c(c(O)c2C(OC2OC(C)C(O)C(O)C2F)C1)C(=O)c1ccccc1C3=O (some centres undefined) | 0.0279 µM |
| O=C(C[C@@H](C(=O)NCc1cccc(C(F)(F)F)c1)N1C(=O)[C@@H](N2C(=O)OC[C@@H]2c2ccccc2)[C@H]1/C=C/c1ccccc1)NC1CCN(Cc2ccccc2)CC1 | 55.3 µM |

###

System: HS 578T breast
Experiment: NCI tumour cell line growth inhibition, 48 h
Reported property: TGI

| Molecule | Target or test system | Reported property | Result |
| --- | --- | --- | --- |
| Cc1cc(NS(=O)(=O)c2ccc(N=Nc3c(O)c(C(=O)O)cc4ccccc34)cc2)nc(C)n1 | HS 578T breast | TGI | > 100 µM |
| CC[C@@H]1/C=C/C=C/C[C@H](C)[C@@H](O)[C@](C)(O)C(=O)[C@H](C)[C@@H](O)[C@H](C)C(=O)[C@H](C)[C@@H](O)[C@H](C)/C=C/C(=O)O[C@H]2[C@@H](C)[C@@H](CC1)O[C@]1(O[C@H](CC(C)O)[C@H](C)CC1=O)[C@@H]2C (stereo partly drawn) | HS 578T breast | TGI | > 18.5 µM |
| CSc1nc(Cl)c2c(n1)Sc1nc3cc4c(cc3n1C2O)OCO4 (stereo not drawn) | HS 578T breast | TGI | > 30.4 µM |
| COc1ccc(OC)c2c1C(=O)C(Cl)=C(N1CCN(CCOCCO)CC1)C2=O | HS 578T breast | TGI | 38.2 µM |
| O=[N+]([O-])c1ccccc1N=Nc1c(O)sc2ccccc12 | HS 578T breast | TGI | > 100 µM |
| COc1cccc(C2c3cc4c(cc3OC(N3CCCC3)C2C)OCO4)c1 (stereo not drawn) | HS 578T breast | TGI | 34.6 µM |
| NCCc1nc(-c2nc(C(=O)O)cs2)cs1 | HS 578T breast | TGI | > 100 µM |
| COc1cc(C2c3cc4c(cc3[C@@H](Nc3ccccc3)C3CO[C@@H](OC)[C@H]23)OCO4)cc(OC)c1O (stereo partly drawn) | HS 578T breast | TGI | 17.3 µM |

###

Recorded measurements of TGI, one per entry
Test system: A549 NSCLC
Experiment: NCI tumour cell line growth inhibition, 48 h

| Compound | Target or test system | TGI |
| --- | --- | --- |
| CC(=O)OC1CC2OC(Cc3ccccc32)O1 (configuration not stated) | A549 NSCLC | > 100 µM |
| O=C(O)c1cc(N=Nc2ccc([As](=O)(O)O)cc2)ccc1O | A549 NSCLC | > 100 µM |
| O=P(c1ccccc1)(c1ccccc1)C(NCc1ccccc1)c1ccc(F)cc1 (configuration not stated) | A549 NSCLC | 30.2 µM |
| C[C@]12CC[C@@H]3c4ccc(O)cc4C[C@@H](CCCCCCCCCS(=O)CCCC(F)(F)C(F)(F)F)[C@H]3[C@@H]1CC[C@@H]2O (some centres not stated) | A549 NSCLC | > 100 µM |
| Cc1cc(NS(=O)(=O)c2ccc(NC(=O)c3cccc4c(=O)c5ccccc5[nH]c34)cc2)no1 | A549 NSCLC | > 100 µM |
| N#C/C(C(=S)Nc1ccccc1)=C1/NN=C2c3ccccc3C(=O)NN21 | A549 NSCLC | > 100 µM |
| CCCCn1c(-c2ccc(C(=O)O/N=C(\N)c3ccc(OC)cc3)cc2)nc(-c2ccccc2)c1-c1ccccc1 | A549 NSCLC | 3.75 µM |
| CC(=O)[O][Hg][c]1c(C)c(C)c(C)c(C)c1C | A549 NSCLC | 27.8 µM |
| C=CCN1C(=O)/C(=C/c2ccccc2)NC1=S | A549 NSCLC | > 100 µM |
| COc1ccc(C(=O)/C=C/c2cccnc2Nc2cc(OC)c(OC)c(OC)c2)cc1 | A549 NSCLC | 18.5 µM |
| O=C1SCC(O)=C1/C=N/Nc1nc2ccccc2o1 | A549 NSCLC | 95.4 µM |
| COC1(OC)C2(Cl)CCC1(Cl)C(OC(C)=O)C2 (configuration not stated) | A549 NSCLC | > 100 µM |
| O=C(Nc1ccc2nc(-c3ccccc3)cn2c1)Oc1ccccc1 | A549 NSCLC | > 100 µM |
| O=c1[nH]nc(-c2cccc(Br)c2)[nH]1 | A549 NSCLC | > 100 µM |
| O=C(CSc1nnc(Cc2ccccc2)o1)Nc1cccc([N+](=O)[O-])c1 | A549 NSCLC | > 100 µM |
| O=C1NC(Nc2cccc(Cl)c2)=N/C1=C\c1ccc(Cl)c(Cl)c1 | A549 NSCLC | 16 µM |
| Cc1ccccc1Nc1cn(COCc2ccccc2)c(=O)[nH]c1=O | A549 NSCLC | > 100 µM |
| N#CCCN(CCC#N)c1ccc(/C=C2\N=C(CN3C(=O)c4ccccc4C3=O)OC2=O)cc1 | A549 NSCLC | > 100 µM |
| O=C(CCc1ccc(O)cc1)NCCc1ccc(O)cc1 | A549 NSCLC | > 100 µM |
| CN1C(NC(=O)c2ccc(Cl)nc2)=NS(=O)(=O)c2cc(Cl)ccc21 | A549 NSCLC | > 100 µM |
| CCOC(=O)NC(=O)c1cn(CCCOC(=O)NCCCCCCNC(=O)OCCCn2c(=O)c(C(=O)NC(=O)OCC)cn(C)c2=O)c(=O)n(C)c1=O | A549 NSCLC | > 100 µM |
| O=[N+]([O-])c1ccc2nnnn2c1 | A549 NSCLC | > 100 µM |

Origin of the recorded values: PubChem BioAssay (NCI)
